assay_system: Fab D6 (rabbit)
Sequence (heavy, as listed by the source, chain 1 of 2): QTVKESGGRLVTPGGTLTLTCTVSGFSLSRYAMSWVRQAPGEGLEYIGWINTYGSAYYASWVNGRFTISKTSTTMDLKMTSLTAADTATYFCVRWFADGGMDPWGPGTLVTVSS
Sequence (light, as listed by the source, chain 2 of 2): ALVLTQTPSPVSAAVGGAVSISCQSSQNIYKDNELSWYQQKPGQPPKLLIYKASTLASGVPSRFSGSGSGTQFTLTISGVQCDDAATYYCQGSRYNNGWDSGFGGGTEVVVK
assay_explanation: SPR; Biacore T200; each Fab immobilised on a CM5 chip by amine coupling; peptides injected at increasing concentrations; running buffer PBS with 0.005% Tween 20; global fitting of the curves, or steady-state analysis where kinetic parameters could not be determined (fast dissociation, low affinity)
Where no end group is shown, it is not given here. Me3 = trimethyl-lysine
reported_endpoint: Kd (µM)
Output spec: scalar in µM, unitless text.

Name the recorded Kd for NPIFEKFGK(Me3)GGTYP-NH2 [Methylated MAP3K2 peptide in which the C terminus was amidated] .
0.0591

Requested field: Kd. Item: NPIFEKFGKGGTYP [MAP3K2 peptide, …]
140
